# assayed.target: FXR (Homo sapiens, UniProt Q96RI1)
# Construct: using a full length FXR on a natural response element; expressed in transfected cells
# Sequence (Q96RI1 whole entry, species assumed): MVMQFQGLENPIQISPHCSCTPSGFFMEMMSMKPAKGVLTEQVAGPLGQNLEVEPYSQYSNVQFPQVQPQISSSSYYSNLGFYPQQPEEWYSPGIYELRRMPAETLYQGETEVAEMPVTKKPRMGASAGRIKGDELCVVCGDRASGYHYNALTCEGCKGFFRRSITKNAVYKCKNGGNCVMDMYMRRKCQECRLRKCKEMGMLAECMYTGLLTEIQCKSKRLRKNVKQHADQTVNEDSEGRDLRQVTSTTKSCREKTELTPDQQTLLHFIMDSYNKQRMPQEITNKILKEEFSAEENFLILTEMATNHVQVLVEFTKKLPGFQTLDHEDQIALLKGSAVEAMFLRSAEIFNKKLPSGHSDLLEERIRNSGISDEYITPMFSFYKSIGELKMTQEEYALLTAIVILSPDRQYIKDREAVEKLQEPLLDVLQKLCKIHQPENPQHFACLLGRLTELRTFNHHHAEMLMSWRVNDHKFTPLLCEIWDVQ
# test: cell-based FXR transcription assay, FXR responsive promoter linked to luciferase reporter
# test.conditions: cell-based FXR reporter assay; footnote a not given
quantity: RE^a

Solved entries:
COC(=O)/C=C/c1cccc(N(Cc2ccc(-c3ccc(C)cc3)cc2)C(=O)C(C)C)c1 [Compound 236] | 1.48
COC(=O)/C=C/c1cccc(N(Cc2ccc(-c3ccc(OC(F)(F)F)cc3)cc2)C(=O)C2CCCCC2)c1 [Compound 250] | 1.04
COC(=O)C=Cc1cccc(N(Cc2ccc(C=CCOc3ccccc3)cc2)C(=O)C2CCCCC2)c1 [Compound 158] | 0.64
CCOc1cccc(-c2ccc(CN(C(=O)C(C)C)c3cccc(/C=C/C(=O)OC)c3)cc2)c1 [Compound 227] | 1.03
COC(=O)/C=C/c1cccc(N(Cc2ccc(/C=C/c3ccccc3F)cc2)C(=O)C(C)C)c1 [Compound 193] | 1.17
COC(=O)/C=C/c1cccc(N(Cc2ccc(-c3ccc(N(C)C)cc3)cc2)C(=O)C2CCCCC2)c1 [Compound 259] | 1.72
COC(=O)C=Cc1cccc(N(Cc2ccc(C=Cc3ccccn3)cc2)C(=O)C(C)C)c1 [Compound 208] | 0.62
COC(=O)C=Cc1cccc(N(Cc2ccc(C=Cc3c(C)cc(C)cc3C)cc2)C(=O)C2CCCCC2)c1 [Compound 195] | 0.24
COC(=O)/C=C/c1cccc(N(Cc2ccc(-c3ccc(OC)cc3)cc2)C(=O)C(C)C)c1 [Compound 230] | 1.21
COC(=O)/C=C/c1cccc(N(Cc2ccc(-c3cccc(OC(F)(F)F)c3)cc2)C(=O)C(C)C)c1 [Compound 254] | 0.69

(a) COC(=O)/C=C/c1cccc(N(Cc2ccc(-c3ccccc3OC)cc2)C(=O)C2CCCCC2)c1 [Compound 218]
(b) CC(C)(C)OC(=O)C=Cc1ccc(CN(C(=O)C2CCCCC2)c2cccc(C=CC(=O)OC(C)(C)C)c2)cc1 [Compound 134]
(c) COC(=O)C=Cc1cccc(N(Cc2ccc(C=CC(=O)O)cc2)C(=O)C2CCCCC2)c1 [Compound 104]
Ask | Arrange the 3 compounds from largest to smallest RE^a. // ordering of labels required in reply
Reply | b, a, c

* * *

# assayed.target: FXR (Homo sapiens, UniProt Q96RI1)
# Construct: using a full length FXR on a natural response element; expressed in transfected cells
# test: cell-based FXR transcription assay, FXR responsive promoter linked to luciferase reporter
# test.conditions: cell-based FXR reporter assay; footnote a not given
quantity: RE^a

(a) COC(=O)/C=C/c1cccc(N(Cc2ccc(/C=C/c3ccc(F)cc3)cc2)C(=O)NC(C)C)c1 [Compound 206]
(b) COC(=O)C=Cc1cccc(N(Cc2ccccc2Br)C(=O)C2CCCCC2)c1 [Compound 114]
Ask | Compare reported RE^a values for a and b . Which is lower? State your choice using its label.
Reply | b
(b: 0.11, a: 0.91)

(a) COC(=O)/C=C/c1cccc(N(Cc2ccc(-c3ccc(OC)cc3)cc2)C(=O)NC(C)C)c1 [Compound 231]
(b) COC(=O)/C=C/c1cccc(N(Cc2ccc(/C=C/c3c(F)cccc3F)cc2)C(=O)C(C)C)c1 [Compound 190]
Ask | Hi there, can you help? I need to know whether a or b has lower measured RE^a. Choose, then provide that item's label.
Reply | b
(b: 0.79, a: 1.18)
